Please go through the items and note down their pIC50.
molecular target: UniProt:O00329; experiment: Inhibition of PIK3CD Kinase Activity
Sequence (O00329 whole entry, looked up): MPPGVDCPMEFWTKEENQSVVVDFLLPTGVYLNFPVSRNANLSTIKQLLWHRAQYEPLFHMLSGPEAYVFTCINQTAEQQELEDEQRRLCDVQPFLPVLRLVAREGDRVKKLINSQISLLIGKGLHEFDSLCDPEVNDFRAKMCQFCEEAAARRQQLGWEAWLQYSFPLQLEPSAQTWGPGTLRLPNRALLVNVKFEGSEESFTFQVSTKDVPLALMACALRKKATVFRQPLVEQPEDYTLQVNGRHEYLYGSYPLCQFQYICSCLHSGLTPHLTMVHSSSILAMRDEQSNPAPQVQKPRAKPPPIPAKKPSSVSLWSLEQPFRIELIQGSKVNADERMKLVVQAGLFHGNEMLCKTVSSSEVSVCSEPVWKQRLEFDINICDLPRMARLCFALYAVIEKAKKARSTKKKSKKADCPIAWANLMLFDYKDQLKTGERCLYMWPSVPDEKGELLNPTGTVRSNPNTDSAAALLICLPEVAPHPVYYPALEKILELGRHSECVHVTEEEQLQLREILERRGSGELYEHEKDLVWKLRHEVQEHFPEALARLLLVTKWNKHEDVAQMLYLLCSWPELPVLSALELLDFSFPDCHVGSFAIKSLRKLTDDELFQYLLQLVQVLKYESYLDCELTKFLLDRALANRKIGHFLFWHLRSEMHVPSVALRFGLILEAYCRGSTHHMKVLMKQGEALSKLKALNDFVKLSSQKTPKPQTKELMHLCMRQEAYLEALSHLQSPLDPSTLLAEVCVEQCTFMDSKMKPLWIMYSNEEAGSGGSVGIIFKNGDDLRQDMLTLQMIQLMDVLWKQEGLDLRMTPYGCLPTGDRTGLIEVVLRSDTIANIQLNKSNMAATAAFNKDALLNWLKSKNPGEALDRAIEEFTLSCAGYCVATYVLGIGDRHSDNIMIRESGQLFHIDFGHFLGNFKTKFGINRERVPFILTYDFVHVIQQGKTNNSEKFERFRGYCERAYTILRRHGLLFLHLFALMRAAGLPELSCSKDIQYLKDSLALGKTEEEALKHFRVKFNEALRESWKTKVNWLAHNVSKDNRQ
pIC50: −log10 of the molar value.

Example results:
INSERT INTO measurements (compound, system_name, measured_parameter, value_reported) VALUES
  ('CCn1c(CN2CCN(CC(N)=O)[C@@H](C(C)C)C2)nc2c(N3CCOCC3)nc(-c3cccc4[nH]ccc34)nc21', 'UniProt:O00329', 'pIC50', '> 6.30'),
  ('CCn1c(CN2CCC(N3CCOCC3=O)CC2)nc2c(N3CCOCC3)nc(-c3cccc4[nH]ccc34)nc21', 'UniProt:O00329', 'pIC50', '> 6.30'),
  ('CCn1c(CN2CCN(CC(N)=O)[C@@H](C(C)C)C2)nc2c(N3CCOCC3)nc(-c3c(F)ccc4[nH]ccc34)nc21', 'UniProt:O00329', 'pIC50', '> 6.30'),
  ('CCn1c(CN2CCC(N3CCC3=O)CC2)nc2c(N3CCOCC3)nc(-c3c(F)ccc4[nH]ccc34)nc21', 'UniProt:O00329', 'pIC50', '> 6.30');

Batch: pIC50 for all items listed.
1. CCn1c(CN2CCC(N3CC(F)C3)CC2)nc2c(N3CCOCC3)nc(-c3cccc4[nH]ccc34)nc21
2. CCn1c(CN2CCC(N(C)S(C)(=O)=O)CC2)nc2c(N3CCOCC3)nc(-c3c(F)ccc4[nH]ccc34)nc21
3. CCn1c(CN2CCOC(C)(C)C2)nc2c(N3CCOCC3)nc(-c3cccc4[nH]ccc34)nc21
4. CCn1c(CN2CCc3ccccc3C2)nc2c(N3CCOCC3)nc(-c3cccc4[nH]ccc34)nc21

-- reply
1: > 6.30; 2: > 6.30; 3: > 6.30; 4: > 6.30

Batch: pIC50 for all items listed.
1. CCn1c(CN2CCC(N3CCOC3=O)CC2)nc2c(N3CCOCC3)nc(-c3c(F)ccc4[nH]ccc34)nc21
2. CCn1c(CN2CCN3CCOC[C@H]3C2)nc2c(N3CCOCC3)nc(-c3c(F)ccc4[nH]ccc34)nc21
3. CCn1c(CN2CCC(N3CCCC3=O)CC2)nc2c(N3CCOCC3)nc(-c3c(F)ccc4[nH]ccc34)nc21
4. CCn1c(CN2CCC3(CCNC3=O)CC2)nc2c(N3CCOCC3)nc(-c3cccc4[nH]ccc34)nc21
5. CCn1c(CN2CCC(c3cc[nH]n3)CC2)nc2c(N3CCOCC3)nc(-c3cccc4[nH]ccc34)nc21
6. CCn1c(CN2CCC(N(C)C)CC2)nc2c(N3CCOCC3)nc(-c3c(F)ccc4[nH]ccc34)nc21
7. CCn1c(CN2CCN(C(C)(C)C(N)=O)CC2)nc2c(N3CCOCC3)nc(-c3c(F)ccc4[nH]ccc34)nc21

-- reply
> 6.30
> 6.30
> 6.30
> 6.30
> 6.30
> 6.30
> 6.30

Batch: pIC50 for all items listed.
1. CC(C)(C(N)=O)N1CCN(Cc2nc3c(N4CCOCC4)nc(-c4c(F)ccc5[nH]ccc45)nc3[nH]2)CC1
2. CCn1c(CN2CCN(C(C)(C)C(N)=O)CC2)nc2c(N3CCOCC3)nc(-c3cccc4[nH]ccc34)nc21

-- reply
1: > 6.30; 2: > 6.30
